- Tested on: MCF7
- testDetails: Antiproliferative activity against human MCF7 cells after 72 hrs by sulforhodamine B assay
- Assay type: functional, cell-based
- particulars: MCF7, 72 h
measuredQuantity: IC50 (µM)
Write the value in µM as a bare number.

The recorded IC50 for C/C=C1/CN(C)[C@H]2Cc3c([nH]c4ccccc34)C(c3c(OC)ccc4c5c([nH]c34)[C@]3(C(=O)OC)C[C@@H]4C[C@H](CC)[C@@H]3N(CC5)C4)C[C@H]1[C@@H]2C(=O)OC (some centres undefined) is 5.6

The recorded IC50 for `C/C=C1/CN(C)[C@H]2Cc3c([nH]c4ccccc34)[C@H](c3c(OC)ccc4c5c([nH]c34)[C@]3(C(=O)OC)C[C@H]4C[C@H](CC)[C@@H]3N(CC5)C4)C[C@H]1[C@]2(CO)C(=O)OC` is 5.3

The recorded IC50 for `CC(=O)O[C@H]1C(=O)[C@@]2(C)[C@H]([C@H](OC(=O)c3ccccc3)[C@]3(O)C[C@H](OC(=O)[C@H](O)[C@@H](NC(=O)c4ccccc4)c4ccccc4)C(C)=C1C3(C)C)[C@]1(OC(C)=O)CO[C@@H]1C[C@@H]2O` is 0.0088

The recorded IC50 for `C/C=C1/CN2COC[C@@]3(C(=O)OC)[C@@H]1C[C@@H](c1cc4c5c([nH]c4cc1OC)[C@]1(C(=O)OC)C[C@@H]4C[C@H](CC)[C@@H]1N(CC5)C4)c1[nH]c4ccccc4c1C[C@H]23` is 4.8

The recorded IC50 for `C/C=C1/CN2COC[C@]3(C(=O)OC)[C@@H]1C[C@@H](c1c(OC)ccc4c1N=C1[C@]5(C(=O)OC)C[C@H]6C[C@H](CC)[C@@H]5N(CC[C@]14O)C6)c1[nH]c4ccccc4c1C[C@H]23` is 6.5

The recorded IC50 for `C/C=C1/CN(C)[C@H]2Cc3c([nH]c4ccccc34)[C@H](c3cc4c5c([nH]c4cc3OC)[C@]3(C(=O)OC)C[C@@H]4C[C@H](CC)[C@@H]3N(CC5)[C@@H]4CC(C)=O)C[C@H]1[C@@]2(CO)C(=O)OC` is 4.4

The recorded IC50 for `C/C=C1/CN(C)[C@H]2Cc3c([nH]c4ccccc34)[C@H](c3cc4[nH]c5c(c4cc3OC)CCN3C[C@H]4C[C@H](CC)[C@H]3[C@H]5C4)C[C@H]1[C@@H]2C(=O)OC` is 4.7

----------
- testDetails: Antiproliferative activity against human KBVIN cells after 72 hrs by sulforhodamine B assay
- Assay type: functional, cell-based
measuredQuantity: IC50 (µM)
Write the value in µM as a bare number.

The recorded IC50 for `C/C=C1/CN(C)[C@H]2Cc3c([nH]c4ccccc34)[C@H](c3ccc4[nH]c5c(c4c3)CCN3C[C@@H]4C[C@H](CC)[C@H]3[C@@]5(C(=O)OC)C4)C[C@H]1[C@]2(CO)C(=O)OC` is 8.3

The recorded IC50 for `CC[C@H]1C[C@H]2CN3CC[C@@]4(O)C(=Nc5cc(OC)c([C@@H]6C[C@H]7[C@@]8(C(=O)OC)CO[C@H](N(C)[C@H]8Cc8c6[nH]c6ccccc86)[C@@]76O[C@H]6C)cc54)[C@](C(=O)OC)(C2)[C@H]13` is 4.8

The recorded IC50 for `C/C=C1/CN2COC[C@]3(C(=O)OC)[C@@H]1C[C@@H](c1c(OC)ccc4c1N=C1[C@]5(C(=O)OC)C[C@H]6C[C@H](CC)[C@@H]5N(CC[C@]14O)C6)c1[nH]c4ccccc4c1C[C@H]23` is 4.7
